Data origin, for the record: the supplement of paper PMC10126150

- System: ATP;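 also: ATP exposure 15 min at 22 °C before imaging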
- protocol-notes: switch fluorescence ratio, 500 uM ATP over buffer (Cy3 cluster intensity, sum of 5 cycles each) (fold (ratio)); higher = stronger signal-on switching upon ATP binding; sequences stand for … in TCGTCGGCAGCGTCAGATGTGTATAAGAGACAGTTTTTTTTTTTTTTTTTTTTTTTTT…TC
- settings: aptamer strand: ATP DNA aptamer (quencher-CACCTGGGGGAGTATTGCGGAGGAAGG + anchor), 100 nM annealed; ATP concentration: 500 uM
Assign switch fluorescence ratio to each entry below.
Numbers only.

INSERT INTO results (polymer_sequence, tested_system, observed_result) VALUES
  ('GGGGGATCAT', 'ATP', 0.992),
  ('GAATAGGGGA', 'ATP', 1.02),
  ('GGGTTCTTAA', 'ATP', 0.981),
  ('TTGTTTTGAG', 'ATP', 0.994),
  ('GGTGATGGGC', 'ATP', 1.01),
  ('TTTGGTAAGT', 'ATP', 1.02);

Go through the list and state switch fluorescence ratio for each entry.
1. TAAGCGTCTG
2. TGCATGTCTT
3. TAAGAGGGCT

1. 1.01
2. 0.998
3. 0.996

Go through the list and state switch fluorescence ratio for each entry.
1. TGTGAATCCA
2. CGGTTGGCGG
3. ACGGGGGCCG
4. TGTTAGTGGC
5. CGTATCCACT
6. GCTCTTGTTC
7. CATGAATGGG

0.976
0.996
0.993
1
0.996
0.997
1.01
